meta.source: patent US8071625B2

- systemUnderTest: crosslinked smooth muscle actomyosin (chicken gizzard smooth muscle myosin subfragment-1 crosslinked to cardiac or skeletal actin) (Gallus gallus, UniProt P10587)
Entries annotated with measured IC50
Kindly provide the numeric value in µM only, without the unit symbol.

Example results:
compound: O=C(Nc1ccc(C(F)(F)F)cc1)OCC1(C(=O)NCc2ccccc2Cl)CCNCC1
IC50 / µM: 5.94

compound: CCc1ccc(NC(=O)OCC2(C(=O)NCc3ccccn3)CCN(C(=O)CN)CC2)cc1
IC50 / µM: 7.22

compound: CCc1ccc(NC(=O)OC[C@@H]2C[C@@H](NC(=O)CN)CN2C(=O)NCc2ccccc2Cl)cc1
IC50 / µM: 0.234

compound: O=C(Nc1ccc(C(F)(F)F)cc1)OCC1(C(=O)NCc2ccccc2Cl)CCOCC1
IC50 / µM: 1.14

compound: CCc1ccc(NC(=O)OCC2CN(C(=O)CN)CCN2C(=O)NCc2ccccc2Cl)cc1 (stereo not drawn)
IC50 / µM: 2.38

Input line: Indicate its recorded IC50; the compound in question is Cc1c(Cl)cccc1CNC(=O)C1(COC(=O)Nc2ccc(C(F)(F)F)cc2)CCN(C(=O)CNC(=O)OC(C)(C)C)CC1
Output line: 5.65

Input line: Indicate its recorded IC50; the compound in question is CCc1ccc(NC(=O)OCCN(C)C(=O)CCc2ccccc2C(F)(F)F)cc1
Output line: 1.21

Input line: Indicate its recorded IC50; the compound in question is COC(=O)c1ccc(NC(=O)OCC2(C(=O)NCc3ccccc3Cl)CCOCC2)cc1
Output line: 3.55

Input line: Indicate its recorded IC50; the compound in question is CCc1ccc(NC(=O)OCC2(C(=O)NCc3cccc4ccccc34)CCN(C(=O)CN)CC2)cc1
Output line: 0.439

---

Entries annotated with measured pIC50
- systemUnderTest: crosslinked smooth muscle actomyosin (chicken gizzard smooth muscle myosin subfragment-1 crosslinked to cardiac or skeletal actin) (Gallus gallus, UniProt P10587)
// scale note: pIC50 = -log10(conc_M); give the bare number

Example results:
compound: CCc1ccc(NC(=O)OCC2(C(=O)NCc3ccccc3)CCN(C(=O)CN)CC2)cc1
pIC50: 5.09

compound: CCc1ccc(NC(=O)OCC2(C(=O)NCc3ccccc3Cl)CCN(C(=O)C(N)CCN)CC2)cc1 (stereo not shown)
pIC50: 6.23

compound: CCc1ccc(NC(=O)OCC2(C(=O)NCc3ccccc3Cl)CCN(C(=O)OC)CC2)cc1
pIC50: 6.28

compound: CCc1ccc(NC(=O)OCC2(C(=O)NCc3ccccc3Cl)CCN(C(=O)CNC(=O)OC(C)(C)C)CC2)cc1
pIC50: 6.04

compound: CCc1ccc(NC(=O)OCC2(C(=O)NCc3ccccc3Cl)CCN(C(=O)c3ccccn3)CC2)cc1
pIC50: 6.12

Input line: Indicate its recorded pIC50; the compound in question is CCc1ccc(NC(=O)OCC2(C(=O)NCc3ccccc3Cl)CCN(C(=O)C(N)C(C)C)CC2)cc1 (stereo not shown)
Output line: 6.27

Input line: Indicate its recorded pIC50; the compound in question is CCc1ccc(NC(=O)CCC2(C(=O)NCc3ccccc3C)CCN(C(=O)CN)CC2)cc1
Output line: 4.81

---

Entries annotated with measured IC50
- systemUnderTest: crosslinked smooth muscle actomyosin (chicken gizzard smooth muscle myosin subfragment-1 crosslinked to cardiac or skeletal actin) (Gallus gallus)
Kindly provide the numeric value in µM only, without the unit symbol.

Example results:
compound: CCc1ccc(NC(=O)OCC2(C(=O)NCc3ccccc3Cl)CCN(C(=O)C(CO)NC(=O)OC(C)(C)C)CC2)cc1 (centres unmarked)
unitsOfMeasure: µM
IC50: 0.661
//
compound: O=C(Nc1ccc2c(c1)CCC2)OCC1(C(=O)NCc2ccccc2Cl)CCOCC1
unitsOfMeasure: µM
IC50: 0.361
//
compound: CCc1ccc(NC(=O)OCC2(C(=O)NCc3ccccc3Cl)CCN(C(=O)OCCN)CC2)cc1
unitsOfMeasure: µM
IC50: 0.336
//
compound: CCc1ccc(NC(=O)OCC2(C(=O)NCc3ccc(F)cc3)CCN(C(=O)CN)CC2)cc1
unitsOfMeasure: µM
IC50: 1.1
//
compound: CCc1ccc(NC(=O)OCC[C@H](C)N(C)C(=O)NCc2ccccc2Cl)cc1
unitsOfMeasure: µM
IC50: 0.198
//
compound: CCc1ccc(NC(=O)OCC2(C(=O)NCc3ccccc3Cl)CCN(C(=O)C(O)CN)CC2)cc1 (centres unmarked)
unitsOfMeasure: µM
IC50: 0.12

Input line: Indicate its recorded IC50; the compound in question is CCc1ccc(NC(=O)OCCOC(=O)NCc2ccccc2Cl)cc1
Output line: 3.69
